Data origin, for the record: patent US20260125446A1

The following binders are shown together with reported koff values.
# Target under test: T1, pig serum albumin (pig, UniProt P08835 25-607)
# T1 construct: Bought protein, immobilized on a CM5 chip by amine coupling; also called Pig SA
# Measurement notes: SPR (Biacore 8K), albumin immobilized on CM5 chip, 25 C, 1:1 kinetic fit
Kindly provide the numeric value in s⁻¹ only, without the unit symbol.

Take a look at these entries with their results.
RLN Analog 3 (other, Single-chain fusion: VHH - (G4Q)5 L1 - RLN2 B chain (desB1) - L2 - RLN2 A chain) EVQLLESGGGLVQPGGSLRLSCAASGRYIDETAVAWFRQAPGKEREFVAGIGGGVDITYYADSVKGRFTISRDNSKNTLYLQMNSLRPEDTAVYYCAARPGRPLITSKVADLYPYWGQGTLVTVSSGGGGQGGGGQGGGGQGGGGQGGGGQSWMEEVIKLCGRELVRAQIAICGMSTWSGGGSGGSGGGQLYSALANKCCHVGCTKRSLARFC    0.0053
RLN Analog 10 (other, Single-chain fusion: RLN2 B chain (desB1) - L2 - RLN2 A chain - (PGPQ)8 L1 - VHH (C-terminal)) SWMEEVIKLCGRELVRAQIAICGMSTWSGGGSGGSGGGQLYSALANKCCHVGCTKRSLARFCPGPQPGPQPGPQPGPQPGPQPGPQPGPQPGPQEVQLLESGGGLVQPGGSLRLSCAASGRYIDETAVAWFRQAPGKGREFVAGIGGGVDITYYADSVKGRFTISRDNSKNTLYLQMNSLRPEDTAVYYCAARPGRPLITSKVADLYPYWGQGTLVTVSSPP    0.0096
RLN Analog 8 (other, Single-chain fusion: VHH - (PGPQ)8 L1 - RLN2 B chain (desB1) - L2 - RLN2 A chain) EVQLLESGGGLVQPGGSLRLSCAASGRYIDETAVAWFRQAPGKGREFVAGIGGGVDITYYADSVKGRFTISRDNSKNTLYLQMNSLRPEDTAVYYCAARPGRPLITSKVADLYPYWGQGTLVTVSSPGPQPGPQPGPQPGPQPGPQPGPQPGPQPGPQSWMEEVIKLCGRELVRAQIAICGMSTWSGGGSGGSGGGQLYSALANKCCHVGCTKRSLARFC    0.0052

Please turn your attention to the following entry.
Consider the binder shown here: RLN Analog 14 (other, Single-chain fusion: VHH - (PGPQ)8 L1 - RLN2 A chain (desA1-4) - L2 - RLN2 B chain (desB1)) EVQLLESGGGLVQPGGSLRLSCAASGRYIDETAVAWFRQAPGKGREFVAGIGGGVDITYYADSVKGRFTISRDNSKNTLYLQMNSLRPEDTAVYYCAARPGRPLITSKVADLYPYWGQGTLVTVSSPGPQPGPQPGPQPGPQPGPQPGPQPGPQPGPQALANKCCHVGCTKRSLARFCGGGSGGSGGGSWMEEVIKLCGRELVRAQIAICGMSTWS What is its recorded koff?
0.0058
